- TEST SYSTEM: UniProt P36544
- Sequence (P36544 23-502): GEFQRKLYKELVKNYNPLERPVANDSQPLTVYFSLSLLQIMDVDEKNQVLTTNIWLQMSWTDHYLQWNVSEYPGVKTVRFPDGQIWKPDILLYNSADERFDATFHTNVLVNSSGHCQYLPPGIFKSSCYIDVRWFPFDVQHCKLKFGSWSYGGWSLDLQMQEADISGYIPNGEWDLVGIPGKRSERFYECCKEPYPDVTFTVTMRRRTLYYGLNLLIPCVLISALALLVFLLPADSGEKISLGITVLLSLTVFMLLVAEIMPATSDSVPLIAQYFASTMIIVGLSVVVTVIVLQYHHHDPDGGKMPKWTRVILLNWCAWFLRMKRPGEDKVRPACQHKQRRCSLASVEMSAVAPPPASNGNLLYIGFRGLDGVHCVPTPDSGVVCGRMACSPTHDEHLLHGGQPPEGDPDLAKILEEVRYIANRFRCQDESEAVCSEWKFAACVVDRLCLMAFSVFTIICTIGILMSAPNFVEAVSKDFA
- ASSAY SETUP: Table 4
Just a reminder that ties go to not fulfilled: only α7 Imax strictly below 0.4 counts as fulfilled.

Reference set, count: 2
> print(dat)
                                   compound  assigned.category
1  Cc1cccc(NC(=O)c2ccc(N3CC[N+](C)(C)[C@H](C)C3)cc2)n1      not fulfilled
2  CC[N+]1(C)CCN(c2ccc(C(=O)Nc3cccc(C)n3)cc2)C[C@H]1C (some centres unmarked)      not fulfilled

Turning now to a further record.
Exercise: Strictly below 0.4 in α7 Imax? CC[N+]1(C)CCN(c2ccc(C(=O)Nc3cccc(C)n3)cc2)C[C@@H]1C (some centres unmarked)
Key: fulfilled
